assay: Serum and intratumor drug concentration at experimental endpoint, SW620 model; type: in vivo, mice; conditions: Swiss Nu/nu, mouse, serum, oral, 10 mg/kg, single drug; 1h post-treatment at endpoint (day 19); regorafenib 30, selumetinib 0.2, vemurafenib 75, GDC-0994 10 mg/kg; read-out: concentration serum
Measurement name: concentration at 1 h (ng/mL)

[[record]]
smiles = "Cn1nccc1Nc1nccc(-c2ccn([C@H](CO)c3ccc(Cl)c(F)c3)c(=O)c2)n1"
measurement_name = "concentration at 1 h"
units_text = "ng/mL"
observed = 15900


====

assay: Pharmacokinetics, dried blood spot LC-MS/MS, mice with SW620 tumors; format: in vivo; conditions: Swiss Nu/nu, mouse, whole blood (dried blood spot), po, given as part of SW620-specific ODC; whole blood; regorafenib 30, vemurafenib 75, GDC-0994 10 mg/kg; mean ± SD
Measurement name: Cmax (ng/mL)

[[record]]
smiles = "CNC(=O)c1cc(Oc2ccc(NC(=O)Nc3ccc(Cl)c(C(F)(F)F)c3)c(F)c2)ccn1"
observed = 1610

[[record]]
smiles = "Cn1cnc2c(F)c(Nc3ccc(Br)cc3Cl)c(C(=O)NOCCO)cc21"
observed = 230

[[record]]
smiles = "CCCS(=O)(=O)Nc1ccc(F)c(C(=O)c2c[nH]c3ncc(-c4ccc(Cl)cc4)cc23)c1F"
observed = 4710


====

Each entry below lists one item and its recorded Cmax value.
experiment: Pharmacokinetics, dried blood spot LC-MS/MS, mice with SW620 tumors; format: in vivo; conditions: Swiss Nu/nu, mouse, whole blood (dried blood spot), po, mono; whole blood; regorafenib 30, vemurafenib 75, GDC-0994 10 mg/kg; mean ± SD
Measurement name: Cmax (ng/mL)

[[record]]
molecule = "Cn1cnc2c(F)c(Nc3ccc(Br)cc3Cl)c(C(=O)NOCCO)cc21 [selumetinib]"
measurement_name = "Cmax"
observed = 240

[[record]]
molecule = "CNC(=O)c1cc(Oc2ccc(NC(=O)Nc3ccc(Cl)c(C(F)(F)F)c3)c(F)c2)ccn1 [regorafenib]"
measurement_name = "Cmax"
observed = 710

[[record]]
molecule = "CCCS(=O)(=O)Nc1ccc(F)c(C(=O)c2c[nH]c3ncc(-c4ccc(Cl)cc4)cc23)c1F [vemurafenib]"
measurement_name = "Cmax"
observed = 2560


====

experiment: Serum and intratumor drug concentration at experimental endpoint, SW620 model; format: in vivo, mice; conditions: Swiss Nu/nu, mouse, serum, oral, 10 mg/kg, as part of ODC; 1h post-treatment at endpoint (day 19); regorafenib 30, selumetinib 0.2, vemurafenib 75, GDC-0994 10 mg/kg; read-out: concentration serum
Measurement name: concentration at 1 h (ng/mL)

[[record]]
compound = "Cn1nccc1Nc1nccc(-c2ccn([C@H](CO)c3ccc(Cl)c(F)c3)c(=O)c2)n1 [GDC-0994]"
observed = 19400


====

test: Pharmacokinetics, dried blood spot LC-MS/MS, mice with SW620 tumors; type: in vivo; settings: Swiss Nu/nu, mouse, whole blood (dried blood spot), po, given as part of SW620-specific ODC; whole blood; oral; regorafenib 30, vemurafenib 75, GDC-0994 10 mg/kg; mean ± SD; read-out: AUC0-24h
Measurement name: AUC(0-t)

[[record]]
smiles = "CNC(=O)c1cc(Oc2ccc(NC(=O)Nc3ccc(Cl)c(C(F)(F)F)c3)c(F)c2)ccn1"
measurement_name = "AUC(0-t)"
observed = "22.2 µg·h/mL"

[[record]]
smiles = "CCCS(=O)(=O)Nc1ccc(F)c(C(=O)c2c[nH]c3ncc(-c4ccc(Cl)cc4)cc23)c1F"
measurement_name = "AUC(0-t)"
observed = "48.2 µg·h/mL"

[[record]]
smiles = "Cn1cnc2c(F)c(Nc3ccc(Br)cc3Cl)c(C(=O)NOCCO)cc21"
measurement_name = "AUC(0-t)"
observed = "0.89 µg·h/mL"


====

experiment: Pharmacokinetics, dried blood spot LC-MS/MS, mice with SW620 tumors; type: in vivo; details: Swiss Nu/nu, mouse, whole blood (dried blood spot), po, mono; regorafenib 30, vemurafenib 75, GDC-0994 10 mg/kg
Each entry below lists one item and its recorded Tmax value.
Measurement name: Tmax (h)

[[record]]
smiles = "Cn1cnc2c(F)c(Nc3ccc(Br)cc3Cl)c(C(=O)NOCCO)cc21"
measurement_name = "Tmax"
observed = 2

[[record]]
smiles = "CNC(=O)c1cc(Oc2ccc(NC(=O)Nc3ccc(Cl)c(C(F)(F)F)c3)c(F)c2)ccn1"
measurement_name = "Tmax"
observed = 4

[[record]]
smiles = "CCCS(=O)(=O)Nc1ccc(F)c(C(=O)c2c[nH]c3ncc(-c4ccc(Cl)cc4)cc23)c1F"
measurement_name = "Tmax"
observed = 2


====

assay: Serum and intratumor drug concentration at experimental endpoint, SW620 model; type: in vivo, mice; details: Swiss Nu/nu, mouse, serum, oral, single drug; 1h post-treatment at endpoint (day 19); regorafenib 30, selumetinib 0.2, vemurafenib 75, GDC-0994 10 mg/kg; read-out: concentration serum
Each entry below lists one item and its recorded concentration at 1 h value.
Measurement name: concentration at 1 h (ng/mL)

[[record]]
smiles = "CNC(=O)c1cc(Oc2ccc(NC(=O)Nc3ccc(Cl)c(C(F)(F)F)c3)c(F)c2)ccn1"
observed = 2220

[[record]]
smiles = "Cn1cnc2c(F)c(Nc3ccc(Br)cc3Cl)c(C(=O)NOCCO)cc21"
observed = 410

[[record]]
smiles = "CCCS(=O)(=O)Nc1ccc(F)c(C(=O)c2c[nH]c3ncc(-c4ccc(Cl)cc4)cc23)c1F"
observed = 1960


====

assay: Serum and intratumor drug concentration at experimental endpoint, SW620 model; format: in vivo, mice; details: Swiss Nu/nu, mouse, tumor vs serum, oral, single drug; SW620 model; read-out: ratio tumor vs serum
Each entry below lists one item and its recorded Kp at 1 h value.
Measurement name: Kp at 1 h

[[record]]
smiles = "Cn1nccc1Nc1nccc(-c2ccn([C@H](CO)c3ccc(Cl)c(F)c3)c(=O)c2)n1"
observed = 0.8

[[record]]
smiles = "CNC(=O)c1cc(Oc2ccc(NC(=O)Nc3ccc(Cl)c(C(F)(F)F)c3)c(F)c2)ccn1"
observed = 0.6

[[record]]
smiles = "Cn1cnc2c(F)c(Nc3ccc(Br)cc3Cl)c(C(=O)NOCCO)cc21"
observed = 1.39

[[record]]
smiles = "CCCS(=O)(=O)Nc1ccc(F)c(C(=O)c2c[nH]c3ncc(-c4ccc(Cl)cc4)cc23)c1F"
observed = 0.48


====

test: Serum and intratumor drug concentration at experimental endpoint, SW620 model; assay type: in vivo, mice; conditions: Swiss Nu/nu, mouse, tumor (SW620), oral, as part of ODC; SW620 tumor, 1h post-treatment at endpoint (day 19); doses as E164; read-out: concentration tumor
Each entry below lists one item and its recorded concentration at 1 h value.
Measurement name: concentration at 1 h (ng/g)

[[record]]
smiles = "Cn1cnc2c(F)c(Nc3ccc(Br)cc3Cl)c(C(=O)NOCCO)cc21"
measurement_name = "concentration at 1 h"
observed = 220

[[record]]
smiles = "Cn1nccc1Nc1nccc(-c2ccn([C@H](CO)c3ccc(Cl)c(F)c3)c(=O)c2)n1"
measurement_name = "concentration at 1 h"
observed = 5560

[[record]]
smiles = "CCCS(=O)(=O)Nc1ccc(F)c(C(=O)c2c[nH]c3ncc(-c4ccc(Cl)cc4)cc23)c1F"
measurement_name = "concentration at 1 h"
observed = 890

[[record]]
smiles = "CNC(=O)c1cc(Oc2ccc(NC(=O)Nc3ccc(Cl)c(C(F)(F)F)c3)c(F)c2)ccn1"
measurement_name = "concentration at 1 h"
observed = 1820


====

Each entry below lists one item and its recorded increase of AUC as part of the ODC vs single-drug treatment value.
Assay: Pharmacokinetics, dried blood spot LC-MS/MS, mice with DLD1 tumors
Assay type: in vivo
Settings: mice with DLD1 tumors, AUC0-24h
Protocol: The pharmacokinetic (PK) study was performed using the dried blood spot method. Mice were treated with CTRL, ODCs, and corresponding monotherapies as described above. To determine the disposition in blood in the first 24h, blood samples (5 µL/mouse) were collected from the tail vein (n = 4 mice) at 2h, 4h, 8h, and 24h time points and transferred onto paper (a filter paper 903 protein saver card from Whatman (MA, USA)). […]
Measurement name: increase of AUC as part of the ODC vs single-drug treatment (x)

[[record]]
compound = "CCCS(=O)(=O)Nc1ccc(F)c(C(=O)c2c[nH]c3ncc(-c4ccc(Cl)cc4)cc23)c1F [vemurafenib]"
observed = 6.6

[[record]]
compound = "Cn1cnc2c(F)c(Nc3ccc(Br)cc3Cl)c(C(=O)NOCCO)cc21 [selumetinib]"
observed = 1.6

[[record]]
compound = "C#Cc1cccc(Nc2ncnc3cc(OCCOC)c(OCCOC)cc23)c1 [erlotinib]"
observed = 1.14

[[record]]
compound = "CNC(=O)c1cc(Oc2ccc(NC(=O)Nc3ccc(Cl)c(C(F)(F)F)c3)c(F)c2)ccn1 [regorafenib]"
observed = 2.8


====

assay: Serum and intratumor drug concentration at experimental endpoint, DLD1 model; assay type: in vivo, mice; conditions: Swiss Nu/nu, mouse, serum, oral, single drug; 1h post-treatment at endpoint (day 15); regorafenib 15, erlotinib 12.5, selumetinib 5, vemurafenib 75 mg/kg; read-out: concentration serum
Measurement name: concentration at 1 h (ng/mL)

[[record]]
smiles = "CCCS(=O)(=O)Nc1ccc(F)c(C(=O)c2c[nH]c3ncc(-c4ccc(Cl)cc4)cc23)c1F"
units_text = "ng/mL"
observed = 620

[[record]]
smiles = "CNC(=O)c1cc(Oc2ccc(NC(=O)Nc3ccc(Cl)c(C(F)(F)F)c3)c(F)c2)ccn1"
units_text = "ng/mL"
observed = 880

[[record]]
smiles = "Cn1cnc2c(F)c(Nc3ccc(Br)cc3Cl)c(C(=O)NOCCO)cc21"
units_text = "ng/mL"
observed = 2500

[[record]]
smiles = "C#Cc1cccc(Nc2ncnc3cc(OCCOC)c(OCCOC)cc23)c1"
units_text = "ng/mL"
observed = 2330

